Reference source for all entries: patent US20240216513A1

Experiment: BTK FAC plasma stability assay, rat plasma
Type: in vitro ADME
Conditions: incubation to 24 h
readout_type: Plasma stability (h) rat

[[record]]
molecule = "CCCCCCCCCCCN(C(=O)CCCCCCCCCC(=O)O)C(CCC(=O)NCCOCCOCCOCCOCCOCCOCCOCCOCCOCCOCCOCCOCCC(=O)NCc1ccc(C(=O)OC(C)(C)c2ccc(C(=O)Nc3cc(F)cc(-c4ncnc5[nH]c(-c6ccc(CCN7CCC8(CC7)CCN(C(=O)c7ccc(OC)c(N9CCC(=O)NC9=O)c7)CC8)cc6)cc45)c3C)c(F)c2)cc1)C(=O)O (stereo not drawn)"
readout_type = "Plasma stability (h) rat"
measured_result = ">48 h"

[[record]]
molecule = "CCCCCCCCCCCN(C(=O)CCCCCCCCCC(=O)O)C(CCC(=O)NCCOCCOCCOCCOCCOCCOCCOCCOCCOCCOCCOCCOCCC(=O)NCc1ccc(C(=O)OC(C)(C)c2ccc(C(=O)Nc3cc(F)cc(-c4ncnc5[nH]c(-c6ccc(CCN7CCC8(CC7)CCN(C(=O)c7ccc(OC)c(N9CCC(=O)NC9=O)c7)CC8)cc6)cc45)c3C)c(F)c2)cn1)C(=O)O (stereo not drawn)"
readout_type = "Plasma stability (h) rat"
measured_result = "35.7 h"

[[record]]
molecule = "CCCCCCCCCCCN(C(=O)CCCCCCCCCC(=O)O)C(CCC(=O)NCCOCCOCCOCCOCCOCCOCCOCCOCCOCCOCCOCCOCCC(=O)N[C@H](C)C(=O)OC(C)(C)c1ccc(C(=O)Nc2cc(F)cc(-c3ncnc4[nH]c(-c5ccc(CCN6CCC7(CC6)CCN(C(=O)c6ccc(OC)c(N8CCC(=O)NC8=O)c6)CC7)cc5)cc34)c2C)c(F)c1)C(=O)O (stereo partly drawn)"
readout_type = "Plasma stability (h) rat"
measured_result = ">48 h"

[[record]]
molecule = "CCCCCCCCCCCN(C(=O)CCCCCCCCCC(=O)O)C(CCC(=O)NCCOCCOCCOCCOCCOCCOCCOCCOCCOCCOCCOCCOCCC(=O)NCCOP(=O)(O)OC(C)(C)c1ccc(C(=O)Nc2cc(F)cc(-c3ncnc4[nH]c(-c5ccc(CCN6CCC7(CC6)CCN(C(=O)c6ccc(OC)c(N8CCC(=O)NC8=O)c6)CC7)cc5)cc34)c2C)c(F)c1)C(=O)O (stereo not drawn)"
readout_type = "Plasma stability (h) rat"
measured_result = ">48 h"

[[record]]
molecule = "CCCCCCCCCCCN(C(=O)CCCCCCCCCC(=O)O)C(CCC(=O)NCCOCCOCCOCCOCCOCCOCCOCCOCCOCCOCCOCCOCCC(=O)NCc1ccc(CC(=O)OC(C)(C)c2ccc(C(=O)Nc3cc(F)cc(-c4ncnc5[nH]c(-c6ccc(CCN7CCC8(CC7)CCN(C(=O)c7ccc(OC)c(N9CCC(=O)NC9=O)c7)CC8)cc6)cc45)c3C)c(F)c2)cc1)C(=O)O (stereo not drawn)"
readout_type = "Plasma stability (h) rat"
measured_result = ">48 h"

[[record]]
molecule = "CCCCCCCCCCCN(C(=O)CCCCCCCCCC(=O)O)C(CCC(=O)NCCOCCOCCOCCOCCOCCOCCOCCOCCOCCOCCOCCOCCC(=O)N1CCC(CC(=O)OC(C)(C)c2ccc(C(=O)Nc3cc(F)cc(-c4ncnc5[nH]c(-c6ccc(CCN7CCC8(CC7)CCN(C(=O)c7ccc(OC)c(N9CCC(=O)NC9=O)c7)CC8)cc6)cc45)c3C)c(F)c2)CC1)C(=O)O (stereo not drawn)"
readout_type = "Plasma stability (h) rat"
measured_result = ">48 h"


====

Experiment: BTK FAC plasma stability assay, cyno plasma
Assay type: in vitro ADME, cynomolgus monkey
Reported Plasma stability (h) cyno is given for each of the following compounds.
readout_type: Plasma stability (h) cyno

[[record]]
compound = "CCCCCCCCCCCN(C(=O)CCCCCCCCCC(=O)O)C(CCC(=O)NCCOCCOCCOCCOCCOCCOCCOCCOCCOCCOCCOCCOCCC(=O)NC(C)(C)CC(=O)OC(C)(C)c1ccc(C(=O)Nc2cc(F)cc(-c3ncnc4[nH]c(-c5ccc(CCN6CCC7(CC6)CCN(C(=O)c6ccc(OC)c(N8CCC(=O)NC8=O)c6)CC7)cc5)cc34)c2C)c(F)c1)C(=O)O (centres unmarked) [Example A18]"
units_symbol = "h"
result_operator = ">"
measured_result = 48

[[record]]
compound = "CCCCCCCCCCCN(C(=O)CCCCCCCCCC(=O)O)[C@@H](CCC(=O)NCCOCCOCCOCCOCCOCCOCCOCCOCCOCCOCCOCCOCCC(=O)NCCCC(=O)OC(C)(C)c1ccc(C(=O)Nc2cc(F)cc(-c3ncnc4[nH]c(-c5ccc(CCN6CCC7(CC6)CCN(C(=O)c6ccc(OC)c(N8CCC(=O)NC8=O)c6)CC7)cc5)cc34)c2C)c(F)c1)C(=O)O [Example A27]"
units_symbol = "h"
result_operator = "="
measured_result = 26.6


====

Measured % Release of degrader after 24 h dog by item
Assay: BTK FAC plasma stability assay, dog plasma
Assay type: in vitro ADME
Conditions: 24 h
readout_type: % Release of degrader after 24 h dog (%)

[[record]]
compound = "CCCCCCCCCCCN(C(=O)CCCCCCCCCC(=O)O)C(CCC(=O)NCCOCCOCCOCCOCCOCCOCCOCCOCCOCCOCCOCCOCCC(=O)N1CCC(F)(C(=O)OC(C)(C)c2ccc(C(=O)Nc3cc(F)cc(-c4ncnc5[nH]c(-c6ccc(CCN7CCC8(CC7)CCN(C(=O)c7ccc(OC)c(N9CCC(=O)NC9=O)c7)CC8)cc6)cc45)c3C)c(F)c2)CC1)C(=O)O (centres unmarked)"
readout_type = "% Release of degrader after 24 h dog"
units_symbol = "%"
measured_result = 22.5

[[record]]
compound = "CCCCCCCCCCCN(C(=O)CCCCCCCCCC(=O)O)C(CCC(=O)NCCOCCOCCOCCOCCOCCOCCOCCOCCOCCOCCOCCOCCOCCOCCOCCOCCOCCOCCOCCOCCOCCOCCOCCOCCC(=O)NCC(=O)OC(C)(C)c1ccc(C(=O)Nc2cc(F)cc(-c3ncnc4[nH]c(-c5ccc(CCN6CCC7(CC6)CCN(C(=O)c6ccc(OC)c(N8CCC(=O)NC8=O)c6)CC7)cc5)cc34)c2C)c(F)c1)C(=O)O (centres unmarked)"
readout_type = "% Release of degrader after 24 h dog"
units_symbol = "%"
measured_result = 4.7


====

Measured % Release of degrader after 24 h dog by item
Test: BTK FAC plasma stability assay, dog plasma
Format: in vitro ADME
Conditions: 24 h
readout_type: % Release of degrader after 24 h dog (%)

[[record]]
compound = "CCCCCCCCCCCN(C(=O)CCCCCCCCCC(=O)O)C(CCC(=O)NCCOCCOCCOCCOCCOCCOCCOCCOCCOCCOCCOCCOCCC(=O)N1CCC[C@H]1CC(=O)OC(C)(C)c1ccc(C(=O)Nc2cc(F)cc(-c3ncnc4[nH]c(-c5ccc(CCN6CCC7(CC6)CCN(C(=O)c6ccc(OC)c(N8CCC(=O)NC8=O)c6)CC7)cc5)cc34)c2C)c(F)c1)C(=O)O (stereo partly drawn) [Example A19]"
readout_type = "% Release of degrader after 24 h dog"
measured_result = 0.3

[[record]]
compound = "CCCCCCCCCCCN(C(=O)CCCCCCCCCC(=O)O)C(CCC(=O)NCCOCCOCCOCCOCCOCCOCCOCCOCCOCCOCCOCCOCCC(=O)N1CCN(CC(=O)OC(C)(C)c2ccc(C(=O)Nc3cc(F)cc(-c4ncnc5[nH]c(-c6ccc(CCN7CCC8(CC7)CCN(C(=O)c7ccc(OC)c(N9CCC(=O)NC9=O)c7)CC8)cc6)cc45)c3C)c(F)c2)CC1)C(=O)O (stereo not drawn) [Example A22]"
readout_type = "% Release of degrader after 24 h dog"
measured_result = 1.6

[[record]]
compound = "CCCCCCCCCCCN(C(=O)CCCCCCCCCC(=O)O)[C@@H](CCC(=O)NCCOCCOCCOCCOCCOCCOCCOCCOCCOCCOCCOCCOCCC(=O)NCCCC(=O)OC(C)(C)c1ccc(C(=O)Nc2cc(F)cc(-c3ncnc4[nH]c(-c5ccc(CCN6CCC7(CC6)CCN(C(=O)c6ccc(OC)c(N8CCC(=O)NC8=O)c6)CC7)cc5)cc34)c2C)c(F)c1)C(=O)O [Example A27]"
readout_type = "% Release of degrader after 24 h dog"
measured_result = 0.5

[[record]]
compound = "COc1ccc(C(=O)N2CCC3(CCN(CCc4ccc(-c5cc6c(-c7cc(F)cc(NC(=O)c8ccc(C(C)(C)OC(=O)CNC(=O)CCOCCOCCOCCOCCOCCOCCOCCOCCOCCOCCOCCOCCNC(C)=O)cc8F)c7C)ncnc6[nH]5)cc4)CC3)CC2)cc1N1CCC(=O)NC1=O [Example A33]"
readout_type = "% Release of degrader after 24 h dog"
measured_result = 10.4

[[record]]
compound = "CCCCCCCCCCCN(C(=O)CCCCCCCCCC(=O)O)C(CCC(=O)NCCOCCOCCOCCOCCOCCOCCOCCOCCOCCOCCOCCOCCC(=O)NCC(=O)NCn1c(-c2ccc(CCN3CCC4(CC3)CCN(C(=O)c3ccc(OC)c(N5CCC(=O)NC5=O)c3)CC4)cc2)cc2c(-c3cc(F)cc(NC(=O)c4ccc(C(C)(C)O)cc4F)c3C)ncnc21)C(=O)O (stereo not drawn) [Example A38]"
readout_type = "% Release of degrader after 24 h dog"
measured_result = 0.1

[[record]]
compound = "CCCCCCCCCCCN(C(=O)CCCCCCCCCC(=O)O)[C@H](CCC(=O)NCCOCCOCCOCCOCCOCCOCCOCCOCCOCCOCCOCCOCCC(=O)NCC(=O)OC(C)(C)c1ccc(C(=O)Nc2cc(F)cc(-c3ncnc4[nH]c(-c5ccc(CCN6CCC7(CC6)CCN(C(=O)c6ccc(OC)c(N8CCC(=O)NC8=O)c6)CC7)cc5)cc34)c2C)c(F)c1)C(=O)O [Example A3]"
readout_type = "% Release of degrader after 24 h dog"
measured_result = 9.7

